system: P. berghei ANKA; assay: Four-day suppressive test in P. berghei-infected mice; assay type: in vivo, Plasmodium berghei (male Balb-C mice); details: surviving mice/total; 20 mg kg−1 ip for 4 days
# Survival per entry

[
  {
    "COMPOUND": "COc1ccc2c(c1OC)C/C(=C\\c1ccc(SCc3ccccc3)cc1)C2=O",
    "MEASURED_ON": "P. berghei ANKA",
    "Survival": "0/6"
  },
  {
    "COMPOUND": "CCN(CC)CCCC(C)Nc1ccnc2cc(Cl)ccc12 (stereo not shown) [CQ, chloroquine, reference compound]",
    "MEASURED_ON": "P. berghei ANKA",
    "Survival": "5/6"
  },
  {
    "COMPOUND": "COc1ccc(OC)c2c1C/C(=C\\c1ccc(SCc3ccccc3)cc1)C2=O",
    "MEASURED_ON": "P. berghei ANKA",
    "Survival": "0/6"
  }
]

Attention now turns to another entry.
Q: Look up and report measured Survival for this entry: `COc1cc2c(cc1OC)C(=O)/C(=C/c1ccc(SCc3ccccc3)cc1)C2`
Ans: 0/6
